- Measured on: c-Src SH2
- Method notes: SH2 binding enrichment of the phosphorylated peptide, bacterial display (enrichment ratio); higher = better substrate or ligand; peptides without Tyr show the background;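 further: peptide library displayed on the E. coli surface as eCPX fusions, selected cells deep-sequenced, score is each peptide's frequency after selection divided by its frequency in the input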
Recorded SH2 binding enrichment values for a group of sequences are listed next.
Test readout: SH2 binding enrichment

{"Residue codes": "LNCDRYSAGLL [PDE6A_Y275_V277A]", "Test readout": "SH2 binding enrichment", "Obs value": 0.419}
{"Residue codes": "PFSEPYADFGG [APBA1_Y187_YF]", "Test readout": "SH2 binding enrichment", "Obs value": 0.868}
{"Residue codes": "IDGLEYLHSQS [STK11_Y166_G171S]", "Test readout": "SH2 binding enrichment", "Obs value": 0.413}
{"Residue codes": "SIRYNYLLDVL [FGFR4_Y237]", "Test readout": "SH2 binding enrichment", "Obs value": 1.7}
{"Residue codes": "TPRNTYKMTSL [MKI67_Y849]", "Test readout": "SH2 binding enrichment", "Obs value": 0.805}
{"Residue codes": "ADRARYSAFGG [RBM4_Y361]", "Test readout": "SH2 binding enrichment", "Obs value": 0.55}
{"Residue codes": "NIKKEYTKMVQ [PMS2_Y181_A182T]", "Test readout": "SH2 binding enrichment", "Obs value": 0.784}
{"Residue codes": "PFSSPYENSLI [EPOR_Y489_N487S_YF]", "Test readout": "SH2 binding enrichment", "Obs value": 6.34}
{"Residue codes": "TFEPNYGTVKQ [RAPGEF6_Y1447_YF]", "Test readout": "SH2 binding enrichment", "Obs value": 0.523}
{"Residue codes": "QMQNPYSRHSS [MUC13_Y501]", "Test readout": "SH2 binding enrichment", "Obs value": 0.558}
{"Residue codes": "KKARAYGPGIE [FLNA_Y287]", "Test readout": "SH2 binding enrichment", "Obs value": 0.408}
{"Residue codes": "SSMIDYKPLEK [MYOC_Y479_N480K]", "Test readout": "SH2 binding enrichment", "Obs value": 0.476}
{"Residue codes": "FRAVKYLQMVG [AVPR2_Y117_C112Y_YF]", "Test readout": "SH2 binding enrichment", "Obs value": 0.552}
{"Residue codes": "GCRSKYVGLWR [KCNQ1_Y184_G189R]", "Test readout": "SH2 binding enrichment", "Obs value": 0.802}
{"Residue codes": "TNFRLYLRSLE [MTM1_Y71_YF]", "Test readout": "SH2 binding enrichment", "Obs value": 0.449}
{"Residue codes": "SKNFTYIWWLN [PSG4_Y271_YF]", "Test readout": "SH2 binding enrichment", "Obs value": 0.409}
{"Residue codes": "LSNPAYCLLLA [DDR1_Y513_R514C]", "Test readout": "SH2 binding enrichment", "Obs value": 0.591}
{"Residue codes": "VEKEKYVSYIS [JMJD1C_Y596_M591V]", "Test readout": "SH2 binding enrichment", "Obs value": 0.507}
{"Residue codes": "FKPENYRRLDI [VHL_Y175_V170F]", "Test readout": "SH2 binding enrichment", "Obs value": 0.402}
{"Residue codes": "SFPSFYTSHVQ [NEFL_Y443_YF]", "Test readout": "SH2 binding enrichment", "Obs value": 0.47}
{"Residue codes": "ANRNVYEVEPT [MEGF10_Y1075]", "Test readout": "SH2 binding enrichment", "Obs value": 1.3}
{"Residue codes": "CDKEYYSVHNK [MET_Y1235_Y1230C]", "Test readout": "SH2 binding enrichment", "Obs value": 0.51}
{"Residue codes": "MHLRQYKLLGG [GNAS_Y391_E392K]", "Test readout": "SH2 binding enrichment", "Obs value": 0.483}
{"Residue codes": "GKANRYFSPNF [PTEN_Y336_D331G]", "Test readout": "SH2 binding enrichment", "Obs value": 0.525}
{"Residue codes": "GDSVQYNRTTD [MLPH_Y454_P451S]", "Test readout": "SH2 binding enrichment", "Obs value": 0.481}
{"Residue codes": "GGSSPYSRRLP [CDK13_Y351]", "Test readout": "SH2 binding enrichment", "Obs value": 0.525}
{"Residue codes": "GYEEAYSVSKK [PAFAH1B1_Y28_F31S]", "Test readout": "SH2 binding enrichment", "Obs value": 1.85}
{"Residue codes": "MANFVYKAGPS [MAML2_Y515_M514V_YF]", "Test readout": "SH2 binding enrichment", "Obs value": 0.66}
{"Residue codes": "HQNGMYRLHQD [SGSH_Y89_G90R]", "Test readout": "SH2 binding enrichment", "Obs value": 0.504}
